test system: corn (Zea mays); test: Test A1 preemergence, corn; type: in vivo; settings: 31 g ai/ha, 0 to 100 scale (0 no effect, 100 complete control)
recorded_metric: Plant response rating, Corn

molecule: Cc1c(NS(=O)(=O)C(F)(F)F)cc(C(=O)N2CCSCC2)c(C)c1C
recorded_metric: Plant response rating, Corn
readout_number: 0
//
molecule: Cc1c(C(=O)N2CCSCC2)cc(N(COC(=O)C(C)(C)C)S(=O)(=O)C(F)(F)F)c(C)c1C
recorded_metric: Plant response rating, Corn
readout_number: 0
//
molecule: Cc1ccc(C2=NOC3CCCC23)cc1NS(=O)(=O)C(F)(F)F (centres unmarked)
recorded_metric: Plant response rating, Corn
readout_number: 0
//
molecule: Cc1c(NS(=O)(=O)C(F)(F)F)cc(C(=O)N2CC(C)OC(C)C2)c(C)c1C (centres unmarked)
recorded_metric: Plant response rating, Corn
readout_number: 0
//
molecule: CCC1ON=C(c2cc(N(COC(=O)C(C)(C)C)S(=O)(=O)C(F)(F)F)c(C)cc2C)C1CC (centres unmarked)
recorded_metric: Plant response rating, Corn
readout_number: 10
//
molecule: Cc1c(C(=O)N2CCOCC2)cc(NS(=O)(=O)C(F)(F)F)c(Cl)c1F
recorded_metric: Plant response rating, Corn
readout_number: 0
//
molecule: Cc1c(C(=O)N2CCC(Cl)CC2)cc(N(COC(=O)C(C)(C)C)S(=O)(=O)C(F)(F)F)c(C)c1C
recorded_metric: Plant response rating, Corn
readout_number: 0
//
molecule: CCC1ON=C(c2cc(NS(=O)(=O)C(F)(F)F)c(C)cc2C)C1CC (centres unmarked)
recorded_metric: Plant response rating, Corn
readout_number: 10
